Experiment: protein stability index of a GFP-peptide fusion (GPS, HEK-293T) (PSI 1-6); higher = more stable;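 further: 24-mer peptide tiles fused after GFP, lentivirally expressed, FACS-sorted into six equal bins by GFP/DsRed ratio, decoded by Illumina sequencing, PSI is the read-weighted mean bin number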
Details: treatment: MLN4924 1 uM, 8 h; c terminus: a fixed tail appended
For each record, write down the corresponding protein stability index.
Give only the figure.

What the record says about RPFWEEEKTFWKEEKSFWEMEKSF [CCDC70] : protein stability index is 3.19

What the record says about RNHMENGGDHRYVNNYTNSFGGEW [TRIM29] : protein stability index is 3.15

What the record says about VQGLEGIKMAMVACGDAFTVAIGA [NEK8] : protein stability index is 2.95

What the record says about EKKKGKAKKKRLTKADIGTPSNFQ [WASL] : protein stability index is 4.63

What the record says about LPPSPPPSPASEQTVTVEEAAGGE [MAP2] : protein stability index is 5.51

What the record says about ELLVAHAYTRYLGDLSGGQVLKKI [HMOX1] : protein stability index is 2.32

What the record says about LQSYQAEIIELRRTVNALEIELQA [KRT33B] : protein stability index is 2.27

What the record says about YQELLNVKMALDIEIATYRKLLEG [PRPH] : protein stability index is 2.43

What the record says about AVPVSTSKPSSDLLDLQPDFSSGG [SNAP91] : protein stability index is 4.84

What the record says about LGKMLIGLAGYLSGYDGTFLFQKP [POMT2] : protein stability index is 2.45

What the record says about QLDGLGFLYVTGHIKEILITAGGE [ACSBG2] : protein stability index is 2.44

What the record says about LVSQSNDLSSLRAKYPHDVVNHLS [SPACA9] : protein stability index is 3.19

What the record says about FQASNPYLPTRGGTTMASGGRFRC [TRIM55] : protein stability index is 3.14
